# test-system: Rap guanine nucleotide exchange factor 3 (Homo sapiens) (UniProt O95398)
# Sequence (O95398 whole entry, looked up): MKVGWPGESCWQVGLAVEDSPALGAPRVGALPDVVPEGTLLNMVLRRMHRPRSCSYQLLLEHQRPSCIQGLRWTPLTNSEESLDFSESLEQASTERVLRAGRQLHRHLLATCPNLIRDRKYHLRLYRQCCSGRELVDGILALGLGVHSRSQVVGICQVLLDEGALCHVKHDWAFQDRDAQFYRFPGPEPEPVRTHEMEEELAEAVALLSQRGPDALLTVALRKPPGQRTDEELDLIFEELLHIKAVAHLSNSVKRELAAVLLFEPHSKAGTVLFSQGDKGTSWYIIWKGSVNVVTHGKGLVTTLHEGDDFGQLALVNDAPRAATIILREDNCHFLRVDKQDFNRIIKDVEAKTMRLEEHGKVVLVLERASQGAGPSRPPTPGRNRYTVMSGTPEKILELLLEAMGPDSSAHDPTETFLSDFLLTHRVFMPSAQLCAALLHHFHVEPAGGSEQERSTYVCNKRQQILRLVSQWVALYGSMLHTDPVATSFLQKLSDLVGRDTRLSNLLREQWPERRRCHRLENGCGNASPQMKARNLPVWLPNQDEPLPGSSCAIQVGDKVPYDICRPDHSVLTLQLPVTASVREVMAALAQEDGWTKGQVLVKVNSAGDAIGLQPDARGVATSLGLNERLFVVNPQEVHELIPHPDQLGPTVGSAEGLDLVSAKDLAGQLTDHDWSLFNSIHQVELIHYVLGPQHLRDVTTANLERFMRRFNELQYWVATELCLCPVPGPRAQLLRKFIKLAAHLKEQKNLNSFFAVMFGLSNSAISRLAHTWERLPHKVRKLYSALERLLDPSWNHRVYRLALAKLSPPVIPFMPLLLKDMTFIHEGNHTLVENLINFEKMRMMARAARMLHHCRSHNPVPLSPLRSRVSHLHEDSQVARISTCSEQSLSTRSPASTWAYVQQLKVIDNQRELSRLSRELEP
# assay-details: Counterscreen qHTS for agonist of cAMP-regulated guanine nucleotide exchange factor 3 (EPAC1) (AID 1645889); note: potency is the fitted concentration of half-maximal effect; nearly all actives have a fitted effect of over 40% in size
# reported-conditions: EPAC1 Rap1B-BODIPY-GDP exchange, fluorescence; series mostly up to 154 µM
Inconclusive results are not listed. Activity calls are given as the source filed them. Calls come from the whole dose curve; as a rule, active = well fitted activation curve with a large enough effect; inconclusive = small, poorly fitted or top-dose-only effect, or another doubt; inactive = no such curve, though single readings can be large or run the other way.
Quick reference for Potency among some compounds
quantity-measured: Potency

>>> endpoint_result("Cc1cccc(N2C(=O)c3cccc4c(N(C)CCO)ccc(c34)C2=O)c1")
"39.8 µM (active)"
>>> endpoint_result("COc1ccc2c(Cl)c(C(=O)N/N=C3\\CCCC(=O)C3)sc2c1")
"39.8 µM (active)"
>>> endpoint_result("CCc1ccc[n+](-c2[nH]c(=O)sc2/C=N/NC([S-])=Nc2ccccc2)c1")
"50.1 µM (active)"
>>> endpoint_result("CN(C)c1ccc2nc3c(=O)[nH]c(=O)nc-3n(CC(O)C(O)C(O)CO)c2c1 (centres undefined)")
"11.2 µM (active)"
>>> endpoint_result("COc1cc(OC)c(-c2c3cc(O)c(=O)cc-3oc3cc(O)c(O)cc23)cc1OC")
"70.8 µM (active)"
>>> endpoint_result("COc1ccccc1C(=O)Oc1ccc2c(c1)O/C(=C\\c1ccncc1)C2=O")
"35.5 µM (active)"
>>> endpoint_result("CCN(CC)c1ccc2cc(C(C)=O)c(=O)oc2c1")
"50.1 µM (active)"
>>> endpoint_result("COc1ccc(C(=O)Nc2nc(-c3ccc(OC)cc3)c(-c3ccc([N+](=O)[O-])cc3)s2)cc1")
"63.1 µM (active)"
>>> endpoint_result("NC(=O)c1c(NC(=O)c2ccccc2)sc2c1CCN(Cc1ccccc1)C2")
"39.8 µM (active)"
>>> endpoint_result("COc1ccc2c3c(cccc13)C(=O)CC2")
"31.6 µM (active)"
>>> endpoint_result("O=C1CCC/C(=N/NC(=O)c2sc3ccccc3c2Cl)C1")
"22.4 µM (active)"
>>> endpoint_result("Nc1ccc(-c2c3ccc(=O)cc-3oc3cc(O)ccc23)cc1C(=O)O")
"50.1 µM (active)"
>>> endpoint_result("N#C/C(=C/c1ccc(N2CCCCC2)o1)C(=O)Nc1ccc(Cl)cc1")
"12.6 µM (active)"
>>> endpoint_result("COc1ccc(C(=O)Nc2ccccc2C(=O)O)cc1NC(=O)C(c1ccccc1)c1ccccc1")
"112 µM (active)"
>>> endpoint_result("O=C(O)CCCN1C(=O)/C(=C/c2cn(-c3ccccc3)nc2-c2cccs2)SC1=S")
"15.8 µM (active)"
>>> endpoint_result("CC1=CC2=NC(=O)/C(=C/c3coc4ccccc4c3=O)C(=N)N2O1")
"39.8 µM (active)"
>>> endpoint_result("CCN1CC=C2C(C#N)=C(N)C(C#N)(C#N)C(CCc3ccccc3)C2C1 (centres undefined)")
"5.62 µM (active)"
>>> endpoint_result("CC[n+]1ccc(/C=C/c2c[nH]c3ccccc23)cc1")
"44.7 µM (active)"
>>> endpoint_result("CCN(CC)c1ccc2c(c1)OC(N)=C(C#N)C2c1cccnc1 (centres undefined)")
"35.5 µM (active)"
>>> endpoint_result("COc1ccc(N=Nc2nc3ccc(Br)cc3n2C)cc1")
"50.1 µM (active)"
>>> endpoint_result("O=C1CC2(CCN(S(=O)(=O)c3ccccc3F)CC2)Oc2ccccc21")
"10 µM (active)"
>>> endpoint_result("CN(C)/C=C1\\C=C2C(=O)c3ccccc3N2C1=O")
"10 µM (active)"
>>> endpoint_result("O=C1C=C(c2c(O)ccc3ccccc23)c2ccccc2C1=O")
"35.5 µM (active)"
>>> endpoint_result("CCOC(=O)/C(C#N)=C\\c1ccc(N2CCN(C/C=C/c3ccccc3)CC2)cc1")
"70.8 µM (active)"

* * *

# test-system: Rap guanine nucleotide exchange factor 3 (Homo sapiens) (UniProt O95398)
# assay-details: Counterscreen qHTS for antagonist of cAMP-regulated guanine nucleotide exchange factor 3 (EPAC1) (AID 1645888);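 note: fluorescence loss as bound BODIPY-GDP is released from Rap1B; % of control where 0% means no effect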
# reported-conditions: Rap1B-BODIPY-GDP nucleotide exchange, fluorescence; series mostly up to 154 µM
# Excerpt: Assay Provider (PI): Xiaodong Cheng Ph.D. The University of Texas Medical Branch, […], TX MLPCN Grant: NS066510 In multi-cellular eukaryotic organisms, the effects of cAMP are transduced by two ubiquitously-expressed intracellular cAMP receptors, the classic protein kinase A/cAMP-dependent protein kinase (PKA/cAPK) and the more recently discovered exchange protein directly activated by cAMP/cAMP-regulated guanine nucleotide exchange factor (EPAC/cAMP-GEF). […]
Records with an inconclusive call do not appear. Calls of active or inactive are those of the source. Calls come from the whole dose curve; as a rule, active = well fitted inhibition curve with a large enough effect; inconclusive = small, poorly fitted or top-dose-only effect; inactive = no such curve, though single readings can be large or run the other way.
quantity-measured: activity change, negative = inhibition

>>> endpoint_result("COc1ccc(-c2csc3ncn(-c4ccc(C)cc4)c(=O)c23)cc1OC")
"inactive"
>>> endpoint_result("CCOC(=O)C(C)Sc1nc(-c2ccco2)cc(C(F)(F)F)c1C#N (stereo not given)")
"-10.8% [at 30.8 µM] (inactive)"
>>> endpoint_result("Cc1ccc(C2CC(c3cccs3)=NN2C(=O)c2ccco2)o1 (stereo not given)")
"-15.2% [at 30.8 µM] (inactive)"
>>> endpoint_result("CC(C)C[C@H]1CNC(=O)C(=O)N1C[C@@H]1CCCN1C[C@H](Cc1ccc(O)cc1)N1C[C@H](Cc2ccccc2)N(CC2CCCCC2)C(=O)C1=O")
"inactive"
>>> endpoint_result("COc1ccc(-n2cc(-c3ccccc3)c3c(N4CCOCC4)ncnc32)cc1")
"inactive"
>>> endpoint_result("COc1ccc(-c2nc(C)ncc2-c2ccccc2)c(O)c1")
"-10.8% [at 30.8 µM] (inactive)"
>>> endpoint_result("O=C(O)CSCC(=O)N(Cc1ccccc1)c1nc(-c2ccccc2)c(-c2ccccc2)s1")
"inactive"
>>> endpoint_result("Cc1cc(Br)c2c(c1)[C@](O)(c1cn(C)c3ccccc13)C(=O)N2C")
"-15.6% [at 30.8 µM] (inactive)"
>>> endpoint_result("N#C/C(=N\\Nc1cccc(C(F)(F)F)c1)C(=O)c1ccsc1")
"inactive"
>>> endpoint_result("Cc1cccc(C)c1-n1nnnc1C(c1ccnc2ccccc12)N(CCC#N)Cc1ccccc1 (stereo not given)")
"inactive"
>>> endpoint_result("COc1ccccc1C1CC(=O)Oc2cc(C)cc(C)c21 (stereo not given)")
"-8.23% [at 30.8 µM] (inactive)"
>>> endpoint_result("CCCCn1nnnc1C(c1ccccc1)N1CCN(c2ccc(F)cc2)CC1 (stereo not given)")
"inactive"
>>> endpoint_result("N#C/C(=C/C1=C(N2CCOCC2)C(=C/c2cccc([N+](=O)[O-])c2)/CC1)C(=O)Nc1ccccc1F")
"-3.26% [at 30.8 µM] (inactive)"
>>> endpoint_result("COc1ccc(N=C2NC(=O)S/C2=C\\c2ccc(N(C)C)cc2)cc1")
"inactive"
>>> endpoint_result("CSC1=NSC2=NC(=O)/C(=C\\c3coc4ccccc4c3=O)C(=N)N12")
"inactive"
>>> endpoint_result("CCOC(=O)[C@H]1[C@H]2COc3ccc(C)cc3[C@@H]2N2C(=O)c3ccc(C)cc3NC(=O)[C@@]12C")
"inactive"
>>> endpoint_result("Cc1ccc(-c2cn3nc(-c4ccccc4)c(-c4ccccc4)nc3n2)cc1")
"inactive"
>>> endpoint_result("CCOc1ccc(C(=O)NCC(=O)Nc2ncccc2C)cc1OCC")
"inactive"
>>> endpoint_result("COC(=O)c1ccc2nc(-c3cccc(Br)c3)c(Cc3ccsc3)n2c1")
"-25% [at 30.8 µM] (inactive)"
>>> endpoint_result("Cc1ccc(-c2nnc(Nc3ccc(OCC(N)=O)cc3)c3ccccc23)cc1S(N)(=O)=O")
"inactive"

* * *

# test-system: Rap guanine nucleotide exchange factor 3 (Homo sapiens)
# assay-details: Counterscreen qHTS for antagonist of cAMP-regulated guanine nucleotide exchange factor 3 (EPAC1) (AID 1645888);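 note: fluorescence loss as bound BODIPY-GDP is released from Rap1B; % of control where 0% means no effect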
# reported-conditions: Rap1B-BODIPY-GDP nucleotide exchange, fluorescence; series mostly up to 154 µM
Records with an inconclusive call do not appear. Active and inactive are the calls of the source. Calls follow the shape of the dose curve; as a rule, active = well fitted inhibition curve with a large enough effect; inconclusive = small, poorly fitted or top-dose-only effect; inactive = no such curve, though single readings can be large or run the other way.
quantity-measured: activity change, negative = inhibition

>>> endpoint_result("CC1=NN(c2ccccc2)C(=O)C1=Cc1ccccc1")
"42% [at 30.8 µM] (inactive)"
>>> endpoint_result("Cc1ccc(S(=O)(=O)NN2C(=O)/C(=C/c3cccc(F)c3)SC2=S)cc1")
"inactive"
>>> endpoint_result("COc1cccc(C2CC(c3cccs3)=NN2C(=O)c2ccco2)c1O (stereo unspecified)")
"-12.7% [at 30.8 µM] (inactive)"
>>> endpoint_result("CC(=O)Nc1ccc(Nc2nnc(-c3ccc(O)cc3)c3ccccc23)cc1")
"inactive"
>>> endpoint_result("CN(CC(=O)Nc1ccccc1Sc1ccccc1)C1CCCCC1")
"inactive"
>>> endpoint_result("Clc1ccc(C2Nc3cccc4cccc(c34)N2)c(Cl)c1")
"inactive"
>>> endpoint_result("CCN(CC(=O)NCc1cccs1)C(=O)c1ccc(S(=O)(=O)Nc2ccccc2)cc1")
"inactive"
>>> endpoint_result("CCN(CC)c1ccc2cc(C(C)=O)c(=O)oc2c1")
"inactive"
>>> endpoint_result("COc1ccc(OC)c(C(C[N+](=O)[O-])c2c(C)cc3ccccn23)c1 (stereo unspecified)")
"inactive"
>>> endpoint_result("O=C(O)C1Nc2c(Cl)cc(Cl)c(Cl)c2C2C=CCC12 (stereo unspecified)")
"inactive"
>>> endpoint_result("CC1=CC(C)(C)N2C(=O)C(=Nc3ccc(O)cc3)c3cccc1c32")
"inactive"
